The values you see were collected from paper PMC6309603.

- SUBJECT_OF_TEST: UniProt P06276
- Sequence (P06276 29-602): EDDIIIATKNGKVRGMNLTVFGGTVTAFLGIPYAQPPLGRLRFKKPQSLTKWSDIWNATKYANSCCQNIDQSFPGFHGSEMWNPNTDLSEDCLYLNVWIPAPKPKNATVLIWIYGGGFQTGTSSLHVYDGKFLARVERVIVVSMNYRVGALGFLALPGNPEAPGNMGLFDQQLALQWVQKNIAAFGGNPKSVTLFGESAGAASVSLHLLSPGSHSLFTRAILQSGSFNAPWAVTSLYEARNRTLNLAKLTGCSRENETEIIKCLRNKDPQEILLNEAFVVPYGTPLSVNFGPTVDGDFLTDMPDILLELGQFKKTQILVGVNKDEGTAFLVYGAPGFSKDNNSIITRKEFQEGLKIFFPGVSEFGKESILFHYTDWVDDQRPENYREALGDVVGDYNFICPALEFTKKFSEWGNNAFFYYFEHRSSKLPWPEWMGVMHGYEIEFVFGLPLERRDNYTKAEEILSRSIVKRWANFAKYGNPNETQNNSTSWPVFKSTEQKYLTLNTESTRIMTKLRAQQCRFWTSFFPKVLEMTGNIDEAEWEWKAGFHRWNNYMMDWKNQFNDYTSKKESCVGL
- METHOD_NOTES: biochemical
PARAMETER_MEASURED: IC50 (µM)
// return numeric value only (unit: µM, not printed)

{"COMPOUND": "COc1cc(/C=C/C(=O)c2cc3ccccc3oc2=O)cc(OC)c1OCCN1CCCCC1 [Compound 13m]", "IC50 / µM": 6.41}

Ask: Hello, please tell me recorded IC50 for this one: O=C(/C=C/c1cccc(OCCN2CCCC2)c1)c1cc2ccccc2oc1=O [Compound 6e]
Result: 4.62

Ask: Hello, please tell me recorded IC50 for this one: O=C(/C=C/c1ccccc1OCC(=O)N1CCCCC1)c1cc2ccccc2oc1=O [Compound 11f]
Result: 106

Ask: Hello, please tell me recorded IC50 for this one: CN(C)CCOc1ccccc1/C=C/C(=O)c1cc2ccccc2oc1=O [Compound 7d]
Result: 15.2

Ask: Hello, please tell me recorded IC50 for this one: CN(C)CCOc1cccc(/C=C/C(=O)c2cc3ccccc3oc2=O)c1 [Compound 6d]
Result: 15.3

Ask: Hello, please tell me recorded IC50 for this one: O=C(/C=C/c1ccc(OCCN2CCCC2)cc1)c1cc2ccccc2oc1=O [Compound 5e]
Result: 4.11
